Hey, just so you know, these numbers are from ChEMBL document CHEMBL1158459.

Molecular target: Peroxisome proliferator-activated receptor alpha (Homo sapiens)
Sequence (Q07869 whole entry): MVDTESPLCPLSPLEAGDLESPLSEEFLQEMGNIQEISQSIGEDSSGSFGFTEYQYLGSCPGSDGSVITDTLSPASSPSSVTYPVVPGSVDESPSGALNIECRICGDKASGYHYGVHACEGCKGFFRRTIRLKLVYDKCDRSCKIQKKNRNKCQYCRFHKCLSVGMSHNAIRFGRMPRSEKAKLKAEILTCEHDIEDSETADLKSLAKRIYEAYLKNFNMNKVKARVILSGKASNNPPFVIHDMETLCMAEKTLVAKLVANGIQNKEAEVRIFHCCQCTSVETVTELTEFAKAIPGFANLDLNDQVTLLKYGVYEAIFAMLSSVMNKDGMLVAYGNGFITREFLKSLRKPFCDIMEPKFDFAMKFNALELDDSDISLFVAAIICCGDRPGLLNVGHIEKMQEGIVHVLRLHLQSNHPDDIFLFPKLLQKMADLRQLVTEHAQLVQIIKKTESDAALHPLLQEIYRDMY
pEC50: −log10 of the molar value.
Assign true (1) to entries whose pEC50 meets or exceeds 6; assign false (0) to the rest.

Solved cases (6 shown):
>>> df
                                   compound                            assayed_target      group
0  CC[C@@](C)(Oc1cccc(Cn2c(C)c(C(=O)c3ccc(Cl)cc3)c3ccc(OC(F)(F)F)cc32)c1)C(=O)O (stereo in doubt; 12j)  Peroxisome proliferator-activated receptor alpha (Homo sapiens)   true (1)
1  Cc1c(C(=O)c2ccc(Cl)cc2)c2ccc(OC(F)(F)F)cc2n1Cc1cccc(OCC(=O)O)c1  Peroxisome proliferator-activated receptor alpha (Homo sapiens)  false (0)
2  CC[C@@H](Oc1cccc(Cn2c(C)c(C(=O)c3ccc(Cl)cc3)c3ccc(OC(F)(F)F)cc32)c1)C(=O)O  Peroxisome proliferator-activated receptor alpha (Homo sapiens)   true (1)
3  Cc1c(C(=O)c2ccc(Cl)cc2)c2ccc(OC(F)(F)F)cc2n1Cc1cccc(O[C@@H](C(=O)O)C(C)C)c1  Peroxisome proliferator-activated receptor alpha (Homo sapiens)   true (1)
4  Cc1c(C(=O)c2ccc(Cl)cc2)c2ccc(OC(F)(F)F)cc2n1Cc1cccc(O[C@@H](C)C(=O)O)c1  Peroxisome proliferator-activated receptor alpha (Homo sapiens)  false (0)
5  Cc1c(C(=O)c2ccc(Cl)cc2)c2ccc(OC(F)(F)F)cc2n1Cc1cccc(OC2(C(=O)O)CCC2)c1  Peroxisome proliferator-activated receptor alpha (Homo sapiens)   true (1)

Task: For this compound, is measured pEC50 6 or higher? `CC[C@H](Oc1cccc(Cn2c(C)c(C(=O)c3ccc(Cl)cc3)c3ccc(OC(F)(F)F)cc32)c1)C(=O)O`
Output: true (1)

Task: # check: pEC50 of `Cc1c(C(=O)c2ccc(Cl)cc2)c2ccc(OC(F)(F)F)cc2n1Cc1cccc(O[C@H](C)C(=O)O)c1` is greater than or equal to 6
Output: true (1)

----------
Assay: AUC in high fat diet-fed streptozotocin-treated mouse at 30 mg/kg, po once daily for 12 days
Format: ADME, organism-based
Parameters: dose 30 mg/kg, route oral
Settings: plasma
reported property: AUC at 288 h (µM·h)
Write the number in µM·h without appending the unit.

Task: Return AUC at 288 h for the following molecule: `CC[C@@H](Oc1cccc(Cn2c(C)c(C(=O)c3ccc(Cl)cc3)c3ccc(OC(F)(F)F)cc32)c1)C(=O)O`
Output: 8.2
